experimental-system: T1, human PAR-2 (human, UniProt P55085 26-397)
T1 sequence: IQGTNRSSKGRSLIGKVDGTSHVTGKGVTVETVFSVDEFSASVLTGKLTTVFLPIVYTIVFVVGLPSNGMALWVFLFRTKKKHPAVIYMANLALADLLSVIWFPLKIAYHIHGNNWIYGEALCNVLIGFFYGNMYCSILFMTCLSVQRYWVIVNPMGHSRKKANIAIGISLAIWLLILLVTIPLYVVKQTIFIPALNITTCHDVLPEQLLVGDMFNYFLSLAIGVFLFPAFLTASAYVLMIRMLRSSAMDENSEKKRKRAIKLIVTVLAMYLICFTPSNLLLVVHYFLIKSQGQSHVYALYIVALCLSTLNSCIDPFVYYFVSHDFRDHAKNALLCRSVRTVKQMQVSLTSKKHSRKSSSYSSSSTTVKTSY
assay-protocol: cell-based or functional assay
measurement-kind: PAR-2 β-arrestin cell assay IC50, 1 µM SLIGKV
Could you write the number and then its unit?

Answered examples (2):
// query Specify PAR-2 β-arrestin cell assay IC50, 1 µM SLIGKV for 309-6e (antibody, human IgG4 S228P, kappa, V domains shown) VH: EVQLVESGGGLVQPGGSLRLSCAASGFSLNSYGVIWVRQAPGKGLEWVSVIWGNGNTYYNDSVKGRFTISRDNSKNTLYLQMNSLRAEDTAVYYCARWRGYKDYPFDYWGQGTLVTVSS VL: EIVLTQSPATLSLSPGERATLSCKASQNIYKYLDWYQQKPGQAPRLLIYNTNSLHTGIPARFSGSGSGRDFTLTISSLEPEDFAVYYCLQHNSGWTFGGGTKVEIKR and stop.
// result 5.6 nM

// query Specify PAR-2 β-arrestin cell assay IC50, 1 µM SLIGKV for 309-4e (antibody, human IgG4 S228P, kappa, V domains shown) VH: QVQLVQSGAEVKKPGSSVKVSCKASGFSLNSYGVIWVRQAPGQGLEWMGVIWGNGNTYYNQKFQGRVTITADESTSTAYMELSSLRSEDTAVYYCARWRGYKDYPFDYWGQGTLVTVSS VL: EIVLTQSPATLSLSPGERATLSCKASQNIYKYLDWYQQKPGQAPRLLIYNTNSLHTGIPARFSGSGSGRDFTLTISSLEPEDFAVYYCLQHNSGWTFGGGTKVEIKR and stop.
// result 5.8 nM

New cases:
// query Specify PAR-2 β-arrestin cell assay IC50, 1 µM SLIGKV for 309-12e (antibody, human IgG4 S228P, kappa, V domains shown) VH: QVQLQQWGAGLLKPSETLSLTCAVYGFSLNSYGVIWIRQPPGKGLEWIGVIWGNGNTYYNPSLKSRVTISVDTSKNQFSLKLSSVTAADTAVYYCARWRGYKDYPFDYWGQGTLVTVSS VL: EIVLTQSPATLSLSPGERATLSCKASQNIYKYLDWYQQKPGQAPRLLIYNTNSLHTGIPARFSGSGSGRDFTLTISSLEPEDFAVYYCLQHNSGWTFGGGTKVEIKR and stop.
// result 2.3 nM
